Reported IC50 values are given for each entry in this list.
target: PARP7 (Homo sapiens, UniProt Q7Z3E1); construct: purchased BPS 80527; experiment: PARP7 inhibitory activity assay (histone-coated 384-well plate, chemiluminescence); format: biochemical

INSERT INTO results (molecule, reading) VALUES
  ('O=C(C1CN(Cc2c[nH]c(=O)c(C(F)(F)F)c2)C1)N1CCN(c2ncc(C(F)(F)F)cn2)CC1 [Embodiment 14]', '10 to 100 nM'),
  ('CC(C)(N[C@H]1C[C@H](C(=O)N2CCN(c3ncc(C(F)(F)F)cc3C(=O)N3CCCC3)CC2)C1)c1cc(C(F)(F)F)c(=O)[nH]n1 [Embodiment 66]', '10 to 100 nM');

Next, consider the following molecule.
Query IC50 on PARP7 (Homo sapiens, UniProt Q7Z3E1) for O=C(C1CCN(Cc2c[nH]c(=O)c(C(F)(F)F)c2)CC1)N1CCN(c2ncc(C(F)(F)F)cn2)CC1 [Embodiment 18]
100 to 1000 nM

----------
target: PARP2 (Homo sapiens)
Sequence (Q9UGN5 whole entry): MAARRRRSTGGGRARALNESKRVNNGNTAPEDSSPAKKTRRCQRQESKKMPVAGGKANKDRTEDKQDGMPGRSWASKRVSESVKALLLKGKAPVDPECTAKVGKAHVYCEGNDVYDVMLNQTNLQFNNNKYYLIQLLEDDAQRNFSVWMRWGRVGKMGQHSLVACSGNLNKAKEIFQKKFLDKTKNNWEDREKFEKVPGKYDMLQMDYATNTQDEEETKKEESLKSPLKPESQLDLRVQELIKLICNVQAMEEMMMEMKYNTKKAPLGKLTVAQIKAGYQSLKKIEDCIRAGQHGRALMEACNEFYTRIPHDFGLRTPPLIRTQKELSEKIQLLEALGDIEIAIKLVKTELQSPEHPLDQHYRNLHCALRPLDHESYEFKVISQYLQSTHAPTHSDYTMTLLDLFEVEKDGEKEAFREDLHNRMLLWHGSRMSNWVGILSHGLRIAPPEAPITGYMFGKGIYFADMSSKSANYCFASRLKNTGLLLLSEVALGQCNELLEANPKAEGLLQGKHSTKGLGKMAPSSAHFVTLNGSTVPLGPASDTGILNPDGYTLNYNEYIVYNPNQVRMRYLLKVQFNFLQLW
READOUT KIND: IC50

These recorded examples may help you get a feel for the data.
INSERT INTO measurements (compound_smiles, reading) VALUES
  ('CC(=O)Nc1cc(C(F)(F)F)cnc1N1CCN(C(=O)[C@H]2C[C@H](NCc3cc(C(F)(F)F)c(=O)[nH]n3)C2)CC1', '100 to 1000 nM'),
  ('Cn1ccc2c(C(F)(F)F)cnc(N3CCN(C(=O)[C@H]4C[C@H](NC(C)(C)c5cc(C(F)(F)F)c(=O)[nH]n5)C4)CC3)c21', '100 to 1000 nM');

Next, consider the following molecule.
Query IC50 on PARP2 (Homo sapiens) for COc1cc(C(F)(F)F)cnc1N1CCN(C(=O)C2CN(Cc3cc(C(F)(F)F)c(=O)[nH]n3)C2)CC1
10 to 100 nM

----------
assay: Mouse pharmacokinetic study; type: in vivo; conditions: female, mouse, plasma; BALB/c mice, PO, 10 mg/kg, 0.5% MC
READOUT KIND: Tmax (min)

INSERT INTO results (compound_smiles, measurement_unit, reading) VALUES
  ('O=C(C1CN(Cc2cc(C(F)(F)F)c(=O)[nH]n2)C1)N1CCN(c2ncc(C(F)(F)F)cn2)CC1', 'min', 19.8),
  ('O=c1[nH]nc(CN[C@H]2C[C@H](C(=O)N3CCN(c4ncc(C(F)(F)F)cn4)CC3)C2)cc1C(F)(F)F', 'min', 15);

----------
test: Mouse pharmacokinetic study; type: in vivo; details: female, mouse, plasma; BALB/c mice, IV, 1 mg/kg
READOUT KIND: AUC(0-t) (ng·h/mL)

A: O=c1[nH]nc(CN[C@H]2C[C@H](C(=O)N3CCN(c4ncc(C(F)(F)F)cn4)CC3)C2)cc1C(F)(F)F
B: O=C(C1CN(Cc2cc(C(F)(F)F)c(=O)[nH]n2)C1)N1CCN(c2ncc(C(F)(F)F)cn2)CC1
Decide: A or B , by lowest recorded AUC(0-t). Refer to your chosen entry by its label in the reply.
A

----------
assay: Mouse pharmacokinetic study; assay type: in vivo; settings: female, mouse, plasma; BALB/c mice, IV, 1 mg/kg
READOUT KIND: Cmax (ng/mL)

a: O=c1[nH]nc(CN[C@H]2C[C@H](C(=O)N3CCN(c4ncc(C(F)(F)F)cn4)CC3)C2)cc1C(F)(F)F [Embodiment 12]
b: O=C(C1CN(Cc2cc(C(F)(F)F)c(=O)[nH]n2)C1)N1CCN(c2ncc(C(F)(F)F)cn2)CC1 [Embodiment 5]
Decide: a or b , by lowest recorded Cmax. Refer to your chosen entry by its label in the reply.
a

----------
Biological target: PARP7 (Homo sapiens)
Sequence (Q7Z3E1 1-657): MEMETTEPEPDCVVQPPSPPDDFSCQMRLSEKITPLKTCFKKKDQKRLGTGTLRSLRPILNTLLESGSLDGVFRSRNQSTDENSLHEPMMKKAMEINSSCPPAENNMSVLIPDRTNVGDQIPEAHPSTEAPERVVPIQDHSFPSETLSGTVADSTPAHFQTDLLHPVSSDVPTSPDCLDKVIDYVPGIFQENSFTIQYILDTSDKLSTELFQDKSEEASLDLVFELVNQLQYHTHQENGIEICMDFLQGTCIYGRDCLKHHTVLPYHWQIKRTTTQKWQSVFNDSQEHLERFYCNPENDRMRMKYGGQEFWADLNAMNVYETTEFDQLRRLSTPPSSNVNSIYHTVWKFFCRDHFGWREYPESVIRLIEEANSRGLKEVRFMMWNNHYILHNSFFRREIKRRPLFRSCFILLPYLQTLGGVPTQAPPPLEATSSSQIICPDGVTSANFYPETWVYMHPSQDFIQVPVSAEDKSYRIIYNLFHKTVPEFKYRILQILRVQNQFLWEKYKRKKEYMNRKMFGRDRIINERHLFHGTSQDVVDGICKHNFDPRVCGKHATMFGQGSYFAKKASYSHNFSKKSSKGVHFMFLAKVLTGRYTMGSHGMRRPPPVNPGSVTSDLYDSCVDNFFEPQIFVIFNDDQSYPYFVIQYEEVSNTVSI
pIC50: −log10 of the molar value.
READOUT KIND: pIC50

These recorded examples may help you get a feel for the data.
INSERT INTO assay_data (compound, reading) VALUES
  ('CC(C)(N[C@H]1C[C@H](C(=O)N2CCN(c3ncc(C(F)(F)F)cn3)CC2)C1)c1cc(C(F)(F)F)c(=O)[nH]n1 [Embodiment 48]', '> 8.00'),
  ('O=C([C@H]1CCN(Cc2cc(C(F)(F)F)c(=O)[nH]n2)C1)N1C2CCC1CN(c1ncc(C(F)(F)F)cn1)C2 [Embodiment 11]', '6.00 to 7.00'),
  ('COc1cc(C(F)(F)F)cnc1N1CCN(C(=O)C2CN(Cc3cc(C(F)(F)F)c(=O)[nH]n3)C2)CC1 [Embodiment 46]', '> 8.00'),
  ('O=c1[nH]nc(CN[C@H]2C[C@H](C(=O)N3CCN4c5ncc(C(F)(F)F)cc5OCC[C@@H]4C3)C2)cc1C(F)(F)F [Embodiment 38]', '7.00 to 8.00'),
  ('O=C([C@H]1CCC[C@H](NCc2c[nH]c(=O)c(C(F)(F)F)c2)C1)N1CCN(c2ncc(C(F)(F)F)cn2)CC1 [Embodiment 16]', '5.00 to 6.00'),
  ('O=C(C1CN(Cc2cc(C(F)(F)F)c(=O)[nH]n2)C1)N1CCN2c3ncc(C(F)(F)F)cc3OCC[C@@H]2C1 [Embodiment 37]', '7.00 to 8.00'),
  ('O=C([C@H]1CCN(Cc2c[nH]c(=O)c(C(F)(F)F)c2)C1)N1C2CCC1CN(c1ncc(C(F)(F)F)cn1)C2 [Embodiment 9]', '5.00 to 6.00'),
  ('O=C(C1CN(Cc2cc(C(F)(F)F)c(=O)[nH]n2)C1)N1CCN2c3ncc(C(F)(F)F)cc3OCC[C@H]2C1 [Embodiment 40]', '7.00 to 8.00');

// lookup pIC50 for COc1cc(C(F)(F)F)cnc1N1CCN(C(=O)[C@H]2C[C@H](NCc3cc(C(F)(F)F)c(=O)[nH]n3)C2)CC1 [Embodiment 45]
7.00 to 8.00

// lookup pIC50 for O=c1[nH]cc(CN[C@H]2C[C@@H](C(=O)N3CCN(c4ncc(C(F)(F)F)cn4)CC3)C2)cc1C(F)(F)F [Embodiment 19]
7.00 to 8.00

----------
Reported IC50, PARP2 (Homo sapiens).

INSERT INTO measurements (compound, measured_target, readout_kind, reading) VALUES
  ('CC(C)(N[C@H]1C[C@H](C(=O)N2CCN(c3ncc(C(F)(F)F)cn3)CC2)C1)c1cc(C(F)(F)F)c(=O)[nH]n1 [Embodiment 48]', 'PARP2 (Homo sapiens)', 'IC50', '0.01 to 0.1 µM');

Next, consider the following compound.
Query IC50 on PARP2 (Homo sapiens) for CNC(=O)c1cc(C(F)(F)F)cnc1N1CCN(C(=O)[C@H]2C[C@H](NC(C)(C)c3cc(C(F)(F)F)c(=O)[nH]n3)C2)CC1 [Embodiment 67]
0.1 to 1 µM

----------
Reported IC50, PARP7 (Homo sapiens).

These recorded examples may help you get a feel for the data.
INSERT INTO assay_data (compound_smiles, reading) VALUES
  ('O=C(C1CN(Cc2n[nH]c(=O)cc2C(F)(F)F)C1)N1CCN(c2ncc(C(F)(F)F)cn2)CC1', '100 to 1000 nM'),
  ('O=C(C1CN(Cc2cc(C(F)(F)F)c(=O)[nH]n2)C1)N1CCN2c3ncc(C(F)(F)F)cc3COC[C@H]2C1', '10 to 100 nM'),
  ('O=C(C1CN(Cc2c[nH]c(=O)c(C(F)(F)F)c2)C1)N1CCN(c2ccc(C(F)(F)F)cn2)CC1', '10 to 100 nM');

Next, consider the following compound.
// lookup IC50 for CC(C)(c1cc(C(F)(F)F)c(=O)[nH]n1)N1CC(C(=O)N2CCN(c3ncc(C(F)(F)F)cn3)CC2)C1
10 to 100 nM

The reported numbers originate from patent US20260200942A1.
